Target: PDGFRβ (Homo sapiens (Human), UniProt P09619)
Sequence (P09619 33-1106): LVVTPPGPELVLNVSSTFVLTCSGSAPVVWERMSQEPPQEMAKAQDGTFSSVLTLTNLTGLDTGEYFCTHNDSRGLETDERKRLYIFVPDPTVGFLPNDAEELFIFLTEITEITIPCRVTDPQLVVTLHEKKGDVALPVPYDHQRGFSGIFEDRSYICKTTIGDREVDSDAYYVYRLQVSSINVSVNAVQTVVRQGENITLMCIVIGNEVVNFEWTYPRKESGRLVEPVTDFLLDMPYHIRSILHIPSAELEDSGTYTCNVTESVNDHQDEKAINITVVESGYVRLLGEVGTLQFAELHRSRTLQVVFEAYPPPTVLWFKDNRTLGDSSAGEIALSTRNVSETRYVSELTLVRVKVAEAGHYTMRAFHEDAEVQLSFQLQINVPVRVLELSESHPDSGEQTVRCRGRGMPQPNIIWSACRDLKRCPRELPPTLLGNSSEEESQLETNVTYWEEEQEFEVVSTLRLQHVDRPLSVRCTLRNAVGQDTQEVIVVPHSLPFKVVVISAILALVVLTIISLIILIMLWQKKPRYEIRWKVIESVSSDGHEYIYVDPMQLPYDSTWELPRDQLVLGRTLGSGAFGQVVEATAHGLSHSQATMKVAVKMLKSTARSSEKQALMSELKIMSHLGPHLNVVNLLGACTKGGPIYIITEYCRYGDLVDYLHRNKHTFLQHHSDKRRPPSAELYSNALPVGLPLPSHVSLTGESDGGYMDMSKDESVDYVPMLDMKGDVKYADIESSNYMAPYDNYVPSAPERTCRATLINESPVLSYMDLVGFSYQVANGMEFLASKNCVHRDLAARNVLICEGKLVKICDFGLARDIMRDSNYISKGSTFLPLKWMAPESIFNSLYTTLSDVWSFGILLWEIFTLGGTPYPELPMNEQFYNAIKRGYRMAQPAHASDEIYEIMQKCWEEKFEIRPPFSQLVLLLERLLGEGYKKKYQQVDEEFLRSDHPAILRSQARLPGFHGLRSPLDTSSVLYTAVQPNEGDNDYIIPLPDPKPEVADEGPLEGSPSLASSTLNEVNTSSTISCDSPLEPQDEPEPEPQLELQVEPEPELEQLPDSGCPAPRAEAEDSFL
Settings: read-out: Ki PDGFRβ
endpointLabel: Ki

Supply Ki value. Item: COC(=O)c1cc2c(cc1C)/C(=C(/Nc1ccc(S(=O)(=O)N(C)OCCN(C)CCO)cc1)c1ccccc1)C(=O)N2 [Example 10]
0.0174 µM

----------
Test: Pharmacokinetic measurements in rats (intravenous and intra-tracheal dosing)
Type: in vivo
Conditions: male, CD, lung/plasma, iv; rat, i.v. dosing, 0.1 h; read-out: lung/plasma ratio at time(h)
I'd appreciate it if you could supply Kp at 0.1 h values for the items below.
One number for each entry.

The examples below pair each entry with its known result.
| lineNotation | Kp at 0.1 h |
| --- | --- |
| COC(=O)c1ccc2c(c1)NC(=O)/C2=C(\Nc1ccc(S(=O)(=O)NOCCN(C)C)cc1)c1ccccc1 | 55 |
| COC(=O)c1cc2c(cc1C)/C(=C(/Nc1ccc(C(=O)NOCCN3CCN(C)CC3)cc1)c1ccccc1)C(=O)N2 | 103 |
| COC(=O)c1ccc2c(c1)NC(=O)/C2=C(\Nc1ccc(C(=O)NOCCN(C)C)cc1)c1ccccc1 | 126 |
| COC(=O)c1cc2c(cc1C)/C(=C(/Nc1ccc(C(=O)NOCCN(C)C)c(C)c1)c1ccccc1)C(=O)N2 | 24 |

For each of the items listed, what is its Kp at 0.1 h?
1. COC(=O)c1ccc2c(c1)NC(=O)/C2=C(\Nc1ccc(C(=O)NOCCN2CCN(C)CC2)cc1)c1ccccc1
2. COC(=O)c1cc2c(cc1C)/C(=C(/Nc1ccc(C(=O)NOCCN3CCN(CCO)CC3)cc1)c1ccccc1)C(=O)N2

1. 77
2. 17
